Cited source for all entries: patent US10179128B2

ASSAY DETAILS: Bioavailability (plasma as percent oral dose)
Assay type: in vivo
Listed below: bioavailability values for each entry.

>  <COMPOUND>
OC[C@H]1CNC[C@@H](O)[C@@H]1O [Isofagomine, isofagomine, reference compound]

>  <UOM>
%

>  <bioavailability>
53

$$$$
>  <COMPOUND>
O[C@H]1[C@H](O)CNC[C@@H]1C(F)F

>  <UOM>
%

>  <bioavailability>
106

$$$$

###

ASSAY DETAILS: pKa
Format: physicochemical

>  <MOLECULE>
O[C@H]1[C@H](O)CNC[C@@H]1C(F)F [Compound 1]

>  <pKa>
7.1

$$$$
>  <MOLECULE>
OC[C@H]1CNC[C@@H](O)[C@@H]1O [Isofagomine, isofagomine, reference compound]

>  <pKa>
8.4

$$$$

###

Listed below: Cmax values for each entry.
ASSAY DETAILS: Blood-brain barrier penetration in mice, oral 30 mg/kg FBE
Format: in vivo
STATED CONDITIONS: mouse, oral; 30 mg/kg, plasma

>  <COMPOUND>
OC[C@H]1CNC[C@@H](O)[C@@H]1O [Isofagomine, isofagomine, reference compound]

>  <UOM>
µM

>  <Cmax>
17.5

$$$$
>  <COMPOUND>
O[C@H]1[C@H](O)CNC[C@@H]1C(F)F [Compound 1]

>  <UOM>
µM

>  <Cmax>
84.5

$$$$

###

Listed below: Kp values for each entry.
ASSAY DETAILS: Blood-brain barrier penetration in rats, single 100 mg/kg FBE p.o.
Type: in vivo
STATED CONDITIONS: rat, brain and plasma, po, exposure in nM-hr, read-out: total brain exposure as % of plasma exposure
Where a name gives a salt, the structure may show the parent alone.
QUANTITY: Kp

>  <MOLECULE>
O=C(O)/C=C/C(=O)O.O[C@H]1[C@H](O)CNC[C@@H]1C(F)F [Compound 3, fumarate]

>  <RESULT VALUE>
0.85

$$$$
>  <MOLECULE>
OC[C@H]1CNC[C@@H](O)[C@@H]1O [IFG tartrate, isofagomine tartrate]

>  <RESULT VALUE>
0.29

$$$$
